Reported % inhibition is given for each of the following binders.
- target.desc: T1, recombinant human EGFR extracellular domain with 6xHis (human, UniProt P00533 25-645)
- T1 construct: In-house produced; also called 6xHis EGFR ECD; soluble human EGFR ECD; not shown: 6xHis tag
- test.summary: SPR competition, competitor Ab-10
Quick reminder: number only, in %, skip the unit.

binder	parameter	recorded.value
antibody 1042 (antibody, human IgG1, kappa, V domains shown, Chimeric IgG1 kappa; RA- left out of the VH entry) VH: QVQLQQPGAELVKPGASVKLSCKASGYTFTSHWMHWVQQRPGQGLEWIGEIHPSNGRTNYNEKFKNKATLTVDKSPSTAYMQLSSLTSEDSAVYYCARYYGYDDAMDYWGQGTSVTVSS VL: DIVMTQAAFSNPVTLGTSASISCRSSKSLLHSNGITYLYWYLQKPGQSPQLLIYQMSNLASGVPDRFSSSGSRTDFTLRISRVEAEDVGVYYCAQNLELPYTFGGGTKLEIKR	% inhibition	-4

Next binder, % inhibition to be filled in.
Incoming: Sample antibody 1208 (antibody, human IgG1, kappa, V domains shown, Chimeric IgG1 kappa; also called clone 1208) VH: EVQLVESGGGLVKPGGSLKLSCAASGFAFSSYDMSWVRQTPEKRLEWVAYIGSGDDNTHYPDSVKGRFTISRHNAKNTLYLQMSSLKSEDTAMYYCARQKYGNYGDTMDYWGQGTSVTVSS VL: DVVMTQTPLSLPVSLGDQASISCRSSQSLVHSNGNTYLHWYLQKPGQSPKLLIYKVSNRFSGVPDRFSGSGSGTDFTLKISRVEAEDLGVYFCSQSTHVPTFGGGTKLEIKR — what was its % inhibition?
Outgoing: 32
